Each item that follows carries a reported Population Fragmented Nuclei (%).
Test system: Fibroblast
Assay: Multiplex assay against human fibroblast
Format: toxicity, cell-based
Settings: 48 h, 1 µM, compound concentration 1 uM, replicate 2

Return Population Fragmented Nuclei (%) measured with Fibroblast given this compound: CCn1c(-c2nc3cc(C(=O)N4CCCC(N)C4)ccc3n2C)cc2ccccc21.Cl (stereo not drawn)
32%

Return Population Fragmented Nuclei (%) measured with Fibroblast given this compound: "Cc1cc(O)c(-c2ccc([C@@H](C)CN(C)C)cc2)c2c1[nH]c(=O)c1sccc12"
31%

Return Population Fragmented Nuclei (%) measured with Fibroblast given this compound: "CN(C)C(=O)Cn1cc(-c2ccc(-c3nnc4ccccn34)cc2)cn1"
28%

Return Population Fragmented Nuclei (%) measured with Fibroblast given this compound: "Cc1sc2c(c1C)C(c1ccc(Cl)cc1)=N[C@H](CC(=O)OC(C)(C)C)c1nnc(C)n1-2"
29%

Return Population Fragmented Nuclei (%) measured with Fibroblast given this compound: "Cc1cc(=O)n(C)c2cc(N3C(=O)CC[C@H](NS(=O)(=O)CC(C)C)[C@H]3c3ccc(Cl)cc3)ccc12"
35%

Return Population Fragmented Nuclei (%) measured with Fibroblast given this compound: "COc1cc2nc(N3CCN(C(=O)COc4c(OC)cccc4C(C)C)CC3)nc(N)c2cc1OC.Cl.Cl"
45%

Return Population Fragmented Nuclei (%) measured with Fibroblast given this compound: Cl.Cl.OCCOCCN1CCN(C(c2ccccc2)c2ccc(Cl)cc2)CC1 (stereo not drawn) [HYDROXYZINE HYDROCHLORIDE]
34%

Return Population Fragmented Nuclei (%) measured with Fibroblast given this compound: "COCCn1c(C)c(C)s/c1=N\C(=O)C1C(C)(C)C1(C)C"
31%

Return Population Fragmented Nuclei (%) measured with Fibroblast given this compound: "CCc1nn2c(C)cc(C)nc2c1Cc1ccc(-c2nnc(C3CCNCC3)o2)cc1"
30%

Return Population Fragmented Nuclei (%) measured with Fibroblast given this compound: "COc1ccc2[nH]c(I)c(CCNC(C)=O)c2c1"
30%

Return Population Fragmented Nuclei (%) measured with Fibroblast given this compound: "S=C(NCCCc1c[nH]cn1)NCCCN(Cc1ccc(Cl)c(Cl)c1)c1ccc(Br)cn1"
30%
